tested on: CP250; assay: qHTS profiling for inhibitors of Plasmodium falciparum proliferation (AID 504749); further: nearly all actives have a fitted effect of over 60% in size; conditions: P. falciparum in erythrocytes, SYBR Green DNA, 72 h; series mostly up to 28.7 µM
Results filed as inconclusive are left out. Activity calls are given as the source filed them. The call rests on the fitted dose curve; in most records, active means well fitted inhibition curve with a large enough effect; inconclusive means small, poorly fitted or top-dose-only effect; inactive means flat fitted curve, though single readings scatter.
Select the correct class. Options are Y = active, N = inactive and nothing else.

Field: example entries. Status: answers known.
COMPOUND	SYSTEM	CAT
CCCCC(=O)OCC(=O)[C@]1(O)Cc2c(O)c3c(c(O)c2[C@H](OC2CC(NC(=O)C(F)(F)F)C(O)C(C)O2)C1)C(=O)c1c(OC)cccc1C3=O (some centres not stated)	CP250	Y
C#C[C@@]1(O)CC[C@@H]2[C@H]3CCC4=C/C(=N\O)CC[C@H]4[C@@H]3CC[C@]21CC	CP250	N
C[C@@H](O)[C@@H]1C(=O)N2C(C(=O)O)=C([C@H]3CCCO3)S[C@H]12	CP250	N
COc1ccc2cc1Oc1cc3c(cc1OC)CC[N+](C)(C)C3Cc1ccc(cc1)Oc1c(OC)c(OC)cc3c1C(C2)[N+](C)(C)CC3 (configuration not stated)	CP250	N
OCC1O[C@H](O[C@H]2C(O)C(O)C(O)O[C@@H]2CO)C(O)C(O)C1O (some centres not stated)	CP250	N

Task item: Hi team, can someone confirm the assay call for CC1(C)OC[C@@H]2O[C@@]3(C(=O)O)OC(C)(C)O[C@@H]3[C@@H]2O1 ?
Reply: N

Task item: Hi team, can someone confirm the assay call for CC1=C(C/C=C(\C)CCCC(C)CCCC(C)CCCC(C)C)C(=O)c2ccccc2C1=O (configuration not stated) ?
Reply: N

Task item: Hi team, can someone confirm the assay call for CCN(CC)C(=O)[C@@]1(c2ccccc2)C[C@@H]1CN ?
Reply: N

Task item: Hi team, can someone confirm the assay call for CO[C@H]1/C=C/O[C@@]2(C)Oc3c(C)c(O)c4c(O)c(c5c(c4c3C2=O)NC2(CCN(CC(C)C)CC2)N=5)=NC(=O)/C(C)=C\C=C\[C@H](C)[C@H](O)[C@@H](C)[C@@H](O)[C@@H](C)[C@H](OC(C)=O)[C@@H]1C ?
Reply: Y

Task item: Hi team, can someone confirm the assay call for C/C=C\C[C@H](C)[C@H](O)[C@H]1C(=O)N[C@@H](CC)C(=O)N(C)CC(=O)N(C)[C@@H](CC(C)C)C(=O)N[C@@H](C(C)C)C(=O)N(C)[C@@H](CC(C)C)C(=O)N[C@@H](C)C(=O)N[C@@H](C)C(=O)N(C)[C@@H](CC(C)C)C(=O)N(C)[C@@H](CC(C)C)C(=O)N(C)[C@@H](C(C)C)C(=O)N1C ?
Reply: Y

Task item: Hi team, can someone confirm the assay call for NCCCCC(N)C(=O)O (configuration not stated) ?
Reply: N

---

assay: Stat Signaling Pathway (AID 446); settings: ME-180 (cervical carcinoma) SIE beta-lactamase reporter, IL-6 stimulated, 5 h; at 17.2 µM (top of the series) unless noted;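 further: ME-180 cervical cancer cells given 40 pM IL-6 alongside compound; SIE-controlled beta-lactamase reporter measured as 460/530 nm FRET emission ratio; on the % scale 0 is the no-effect control and ±100 the full control effect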
Inconclusive results are not listed. Activity calls are given as the source filed them. Calls come from the whole dose curve; as a rule, active = well fitted curve in either direction with a large enough effect (not every such curve was filed as active); inconclusive = small, poorly fitted or top-dose-only effect, or another doubt; inactive = flat fitted curve, though single readings scatter.
PARAMETER: activity, negative = inhibition

Before answering, review these 10 worked examples.
>>> print(df.to_string())
                                   compound     value_reported
0  CCC(=O)N[C@@H]1CC(C(C)(C)NC(=O)CC)CC=C1C (stereo partly drawn)  0.886% (inactive)
1  Cc1nc(NS(=O)(=O)c2ccccc2)sc1NC(=O)OCCN(C)C  0.248% (inactive)
2  COc1ccc(C(=O)OC(C)CN2CCN(C)CC2)cc1OC (stereo not drawn)   11.6% (inactive)
3              Cc1nnc2c(NC(C)C)nc3ccccc3n12  -12.6% (inactive)
4                         Cc1nn(C)cc1/C=N/O   4.83% (inactive)
5  CCCOC(=O)CSC1=C(C#N)C(c2ccc3c(c2)OCO3)CC(=O)N1 (stereo not drawn)   1.94% (inactive)
6  O=C(O)C(Cc1c[nH]c2ccccc12)NS(=O)(=O)c1cccc2nsnc12 (stereo not drawn)   6.46% (inactive)
7  COc1ccc(C2C(C#N)=C(SC)NC3=C2C(=O)CC(C)(C)C3)cc1 (stereo not drawn)  -6.08% (inactive)
8  CC(=O)NC1(C(F)(F)F)C(=O)Nc2c1c(=O)n(C)c(=O)n2C (stereo not drawn)  0.854% (inactive)
9  CCOC(=O)c1[nH]c2ccc(OC)cc2c1NC(=O)CCN1CCC(C)CC1   8.76% (inactive)

Turning now to a further compound:
The value of activity, negative = inhibition measured for the compound COC(=O)C1=C(C)OC(N)=C(C#N)C1c1ccc(OC)c(OC)c1OC (stereo not drawn) turned out to be 8.15% (inactive)
